Would you kindly list IC50 for each of these compounds?
# Tested on: MDA-MB-468 cancer cell line
# experimentNotes: Cell growth assay (WST-8)
# Assay type: cell-based
# studyConditions: Homo sapiens, MDA-MB-468, 96 h; WST-8, 4 days; read-out: Inhibition of cell growth IC50, MDA-MB-468 cancer cell line
# Experimental: The effect of STAT3 compounds on cell growth was evaluated by a WST-8 [2-(2-methoxy-4-nitrophenyl)-3-(4-nitrophenyl)-5-(2,4-disulfophenyl)-2H-tetrazolium, monosodium salt assay (Dojindo Molecular Technologies, Inc). […] At the end of incubation, WST-8 dye (20 μL) was added to each well and incubated for an additional 1-3 h, and then the absorbance was measured in a microplate reader (Molecular Devices) at 450 nm. […]

Qu. I would be grateful if you could share the reported IC50 for CCCCCCCCCCCCCCCC(=O)N[C@H](Cc1ccc(OCP(=O)(O)O)cc1)C(=O)N[C@H]1CCCCC2CC[C@@H](C(=O)N[C@@H](CCC(N)=O)C(=O)NCc3ccccc3)N2C1=O (stereo partly shown) .
Ans. < 50 µM

Qu. What do you have for O=C(N[C@@H](Cc1ccc(OP(=O)(O)O)cc1)C(=O)N[C@H]1CCCC[C@H]2CC[C@@H](Cn3cc(-c4ccccc4)nn3)N2C1=O)OCc1ccccc1 [Example 9] ?
Ans. > 5 µM

Qu. What do you have for NC(=O)CC[C@H](NC(=O)[C@@H]1CCC2CCNC[C@H](NC(=O)[C@@H](N)Cc3ccc(OP(=O)(O)O)cc3)C(=O)N21)C(=O)NCc1ccccc1 (stereo partly shown) ?
Ans. > 100 µM

Qu. What do you have for CN[C@@H](Cc1ccc(OCP(=O)(O)O)cc1)C(=O)NC1CCCC[C@H]2CC[C@@H](C(=O)N[C@@H](Cc3c[nH]cn3)C(=O)NCc3ccccc3)N2C1=O (stereo in doubt) [Example 35] ?
Ans. > 100 µM

Qu. What do you have for CCCCCCCCCCCCCCCCN1CCN(CCC(=O)N[C@@H](Cc2ccc(OP(=O)(O)O)cc2)C(=O)N[C@H]2CCCCC3CC[C@@H](C(=O)N[C@@H](CCC(N)=O)C(=O)NCc4ccccc4)N3C2=O)CC1 (stereo partly shown) ?
Ans. < 10 µM

Qu. What do you have for C[C@H](NC(=O)[C@@H]1CC[C@@H]2CCCC[C@H](NC(=O)[C@@H](N)Cc3ccc(OC(C(=O)O)C(=O)O)cc3)C(=O)N21)C(=O)NCc1ccccc1 [Example 10] ?
Ans. > 100 µM

Qu. What do you have for CN(C)C(=O)CCCNC(=O)[C@@H]1CC[C@@H]2CCCC[C@H](NC(=O)[C@H](Cc3ccc(OP(=O)(O)O)cc3)NC(=O)OCc3ccccc3)C(=O)N21 [Example 18] ?
Ans. > 100 µM

Qu. What do you have for CNC(=O)CCCNC(=O)[C@@H]1CC[C@@H]2CCCC[C@H](NC(=O)[C@H](Cc3ccc(OP(=O)(O)O)cc3)NC(=O)OCc3ccccc3)C(=O)N21 [Example 17] ?
Ans. > 100 µM

Qu. What do you have for CNCCCNC(=O)[C@@H]1CC[C@@H]2CCCC[C@H](NC(=O)[C@H](Cc3ccc(OP(=O)(O)O)cc3)NC(=O)OCc3ccccc3)C(=O)N21 [Example 19] ?
Ans. > 100 µM

Qu. What do you have for CN(C)[C@@H](Cc1ccc(CP(=O)(O)O)cc1)C(=O)N[C@H]1CCCC[C@H]2CC[C@@H](C(=O)N[C@@H](Cc3c[nH]cn3)C(=O)NCc3ccccc3)N2C1=O [Example 28] ?
Ans. > 100 µM
